target: UniProtKB Q86W56; assay: Biochemical assay (PARG, TFMU-ADPr substrate); conditions: PARG, TFMU-ADPr substrate
IC50 less than 6 nM is true; IC50 greater than or equal to 6 nM is false.

Check out these entries, answers already filled in.
| compound | assigned class |
| --- | --- |
| CC(C)C(=O)N1CCN(c2cc(S(=O)(=O)NC3(C#N)CC3)cn3c(-c4nnc(C(F)(F)F)s4)cnc23)CC1 | false |
| CC(C)C(=O)N1CCN(c2cc(S(=O)(=O)NC3(C#N)COC3)cn3c(-c4nnc(C(F)F)s4)ncc23)CC1 | true |
| CC(C)C(=O)N1CCN(c2cc(S(=O)(=O)NC3(C(F)F)COC3)cn3c(-c4nnc(C(F)F)s4)ncc23)CC1 | false |
| Cc1nnc(-c2cnn3c(N4CCN(C(=O)C(C)C)CC4)cc(S(=O)(=O)NC4(C#N)CC4)cc23)s1 | false |
| COC1(C(=O)N2CCN(c3cc(S(=O)(=O)NC4(C)CC4)cn4c(-c5nnc(C(F)(F)F)s5)nc(C#N)c34)CC2)CC1 | true |

Q: Threshold test, IC50 < 6 nM: O=C(C1COC1)N1CCN(c2cc(S(=O)(=O)NC3CC3)cn3c(-c4nnc(C(F)(F)F)s4)ncc23)CC1
Ans: false

Q: Confirm or reject: IC50 of CN(C)C(=O)C1CCN(c2cc(S(=O)(=O)NC3(C#N)CC3)cn3c(-c4nnc(C(F)(F)F)s4)ncc23)CC1 lies strictly below 6 nM
Ans: false

---

target: UniProtKB Q86W56; assay: Biochemical assay (PARG, TFMU-ADPr substrate); settings: PARG, TFMU-ADPr substrate
reported metric: log10 of IC50 (log10 of the value in nM)
# log10 transformed; quantity=IC50; unit=nM

Q: For the molecule CC(C)C(=O)N1CCN(c2cc(S(=O)(=O)NC3CC3)cn3c(-c4nnc(C(F)(F)F)s4)nc(C#N)c23)CC1 [Example 166] , what log10 of IC50 is on record?
Ans: 1.12

---

Catalogue of PXR Activation @30 uM (% Ctrl) values
target: PXR (Homo sapiens, UniProt O75469); construct: host or cells: DPX2 (HepG2); experiment: PXR assay (DPX2 luciferase reporter cells); assay type: cell-based; conditions: 24 h, positive control rifampicin
Sequence (O75469 whole entry): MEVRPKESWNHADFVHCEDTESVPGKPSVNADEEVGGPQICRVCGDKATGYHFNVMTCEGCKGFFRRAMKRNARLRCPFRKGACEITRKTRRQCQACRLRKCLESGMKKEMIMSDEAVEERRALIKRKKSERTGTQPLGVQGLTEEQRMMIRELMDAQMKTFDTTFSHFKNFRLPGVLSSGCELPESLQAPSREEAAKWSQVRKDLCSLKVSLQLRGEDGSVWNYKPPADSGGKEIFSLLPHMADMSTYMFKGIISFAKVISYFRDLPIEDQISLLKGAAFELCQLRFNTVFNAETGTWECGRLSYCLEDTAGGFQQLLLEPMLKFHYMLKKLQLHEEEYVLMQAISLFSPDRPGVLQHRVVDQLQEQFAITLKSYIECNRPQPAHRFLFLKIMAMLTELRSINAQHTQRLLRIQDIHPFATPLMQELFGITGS
Use % Ctrl as the unit, but write only the number.

| molecule | system under test | recorded result |
| --- | --- | --- |
| COC1(C(=O)N2CCN(c3cc(S(=O)(=O)NC4(C)CC4)cn4c(-c5nnc(C(F)(F)F)s5)ncc34)CC2)CC1 [Example 193] | PXR (Homo sapiens, UniProt O75469) | 15 |
| CC(C)C(=O)N1CCN(c2cc(S(=O)(=O)NC3(C#N)CC3)cn3c(-c4nnc(C(F)(F)F)s4)ncc23)CC1 [Example 167] | PXR (Homo sapiens, UniProt O75469) | 34 |
| CN1CC[C@@H]1C(=O)N1CCN(c2cc(S(=O)(=O)NC3(C)CC3)cn3c(-c4nnc(C(F)(F)F)s4)ncc23)CC1 [Example 287] | PXR (Homo sapiens, UniProt O75469) | 15 |

Proceed to the following item.
Q: // returns reported PXR Activation @30 uM (% Ctrl) for input CN1CCC1(C)C(=O)N1CCN(c2cc(S(=O)(=O)NC3(C)CC3)cn3c(-c4nnc(C(F)(F)F)s4)ncc23)CC1 (stereo not shown) [Example 330]
Ans: 9

---

assay: Mouse PK assay; type: in vivo; conditions: mouse; CD1 mice, oral administration, 30 mg/kg, plasma; read-out: Half-life period (converted)
reported metric: half-life
Your answer should be a number followed by the unit of measure.

| molecule | recorded result |
| --- | --- |
| CC(C)C(=O)N1CCN(c2cc(S(=O)(=O)NC3(C#N)CC3)cn3c(-c4nnc(C(F)F)s4)ncc23)CC1 [Example 32] | 1.31 h |

Now, please, on to the next molecule.
Q: Any idea what half-life was measured for CC(C)C(=O)N1CCN(c2cc(S(=O)(=O)NC3(C#N)CC3)cn3c(-c4nnc(C(F)(F)F)s4)ncc23)CC1 [Example 167] ?
Ans: 2.75 h

---

system: Human breast squamous carcinoma cells HCC1806; assay: Cell function assay (In-Cell Western, PAR/pADPr after MMS); type: cell-based; details: HCC1806, compound 1 h then 0.5 mM MMS 1 h, PAR/pADPr antibody, In-Cell Western, read-out: IC50 (nM) in cell function assay
reported metric: IC50

The examples below pair each entry with its known result.
| smiles text | IC50 |
| --- | --- |
| C#CC1(NS(=O)(=O)c2cc(N3CCN(C(=O)C(C)C)CC3)c3nnc(-c4nnc(C(F)F)s4)n3c2)COC1 | > 1000 nM |
| [2H]c1nc(-c2nnc(C(F)F)s2)n2cc(S(=O)(=O)NC3(CF)COC3)cc(N3CCN(C(=O)C(C)C)CC3)c12 | < 100 nM |
| C[C@@H]1CN(c2cc(S(=O)(=O)NC3(C#N)CC3)cn3c(-c4nnc(C(F)F)s4)ncc23)CCN1C(=O)C(C)(C)C | < 100 nM |
| CC1(C(=O)N2CCN(c3cc(S(=O)(=O)NC4(C#N)CC4)cn4c(-c5nnc(C(F)F)s5)ncc34)CC2)CC1 | < 100 nM |
| CC(C)C(=O)N1CC2(CC=C(c3nc(-c4nnc(C(F)F)s4)n4cc(S(=O)(=O)NC5(C#N)CC5)ccc34)C2)C1 | < 100 nM |
| N#CC1(NS(=O)(=O)c2cc(N3CCC(F)(F)CC3)c3cnc(-c4nnc(C(F)F)s4)n3c2)CC1 | 100 to 500 nM |

For the next question, use this molecule.
Q: Please report the recorded IC50 for CC(C)C(=O)N1CCN(c2cc(S(=O)(=O)NC3(C)COC3)cn3c(-c4nnc(C(F)F)s4)nnc23)CC1 .
Ans: < 100 nM

---

target: PARG (Homo sapiens, UniProt Q86W56); assay: Biochemical assay (PARG, TFMU-ADPr substrate); settings: 4 nM PARG, 66.2 uM TFMU-ADPr, 3 min at room temperature
Sequence (Q86W56 whole entry): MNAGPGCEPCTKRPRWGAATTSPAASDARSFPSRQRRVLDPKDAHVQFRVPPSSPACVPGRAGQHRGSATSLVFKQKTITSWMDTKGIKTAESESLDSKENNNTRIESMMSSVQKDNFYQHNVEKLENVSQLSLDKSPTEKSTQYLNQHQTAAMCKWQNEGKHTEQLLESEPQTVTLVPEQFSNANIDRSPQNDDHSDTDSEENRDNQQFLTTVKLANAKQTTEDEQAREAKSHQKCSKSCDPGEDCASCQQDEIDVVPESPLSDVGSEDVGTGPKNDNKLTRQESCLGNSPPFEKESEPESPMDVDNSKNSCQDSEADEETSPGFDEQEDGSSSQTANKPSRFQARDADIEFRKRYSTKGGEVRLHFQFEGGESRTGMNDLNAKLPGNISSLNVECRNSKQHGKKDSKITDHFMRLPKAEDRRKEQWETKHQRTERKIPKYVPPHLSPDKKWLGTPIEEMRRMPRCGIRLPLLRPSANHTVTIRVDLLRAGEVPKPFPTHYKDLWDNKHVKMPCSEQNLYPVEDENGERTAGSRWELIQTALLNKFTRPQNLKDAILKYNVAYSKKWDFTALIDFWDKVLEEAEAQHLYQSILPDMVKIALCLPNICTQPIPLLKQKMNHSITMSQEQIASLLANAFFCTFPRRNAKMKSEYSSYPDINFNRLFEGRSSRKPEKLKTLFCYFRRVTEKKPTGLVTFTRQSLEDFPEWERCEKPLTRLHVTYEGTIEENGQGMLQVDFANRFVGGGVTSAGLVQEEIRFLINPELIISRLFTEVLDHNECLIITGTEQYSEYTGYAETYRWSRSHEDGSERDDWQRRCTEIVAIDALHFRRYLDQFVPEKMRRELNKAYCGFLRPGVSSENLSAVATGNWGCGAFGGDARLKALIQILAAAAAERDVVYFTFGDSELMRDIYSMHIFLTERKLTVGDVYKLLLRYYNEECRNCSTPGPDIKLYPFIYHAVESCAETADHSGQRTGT
reported metric: IC50

Examples with answers:
| molecule | reported metric | recorded result |
| --- | --- | --- |
| O=S(=O)(NC1(CF)CC1)c1cc(N2CC3(COCCO3)C2)c2nnc(-c3nnc(C(F)F)s3)n2c1 [Example 113] | IC50 | < 100 nM |
| N#CC1(NS(=O)(=O)c2cc(N3CCC(O)CC3)c3cnc(-c4nnc(C(F)F)s4)n3c2)CC1 [Example 68] | IC50 | < 100 nM |
| N#CC1(NS(=O)(=O)c2ccc3c(C4=CCC5(CNC5)C4)nc(-c4nnc(C(F)F)s4)n3c2)CC1 [Example 22] | IC50 | < 100 nM |

Q: Fill in: IC50 of CC(C)C(=O)N1CCN(c2cc(S(=O)(=O)NC3(C#N)CC3)cn3c(-c4nnc(C(F)F)s4)ncc23)C[C@H]1C [Example 74] is ___
Ans: < 100 nM

---

test system: Human breast squamous carcinoma cells HCC1806; experiment: Cell function assay (In-Cell Western, PAR/pADPr after MMS); assay type: cell-based; conditions: HCC1806, compound 1 h then 0.5 mM MMS 1 h, PAR/pADPr antibody, In-Cell Western, read-out: IC50 (nM) in cell function assay
reported metric: IC50

| molecule | recorded result |
| --- | --- |
| [2H]c1nc(-c2nnc(C(F)F)s2)n2cc(S(=O)(=O)NC3(C)COC3)c(F)c(N3CCN(C(=O)C(C)C)CC3)c12 | 100 to 500 nM |
| CC(C)C(=O)N1CCN(c2cc(S(=O)(=O)NC3(C)CC3)cn3c(-c4nnc(C(F)F)s4)nnc23)CC1 | < 100 nM |
| N#CC1(NS(=O)(=O)c2cc(N3CCN(C(=O)C4CC(F)(F)C4)CC3)c3cnc(-c4nnc(C(F)F)s4)n3c2)CC1 | < 100 nM |
| CN1CC2(CCN(c3cc(S(=O)(=O)NC4(CF)CC4)cn4c(-c5nnc(C(F)F)s5)nnc34)CC2)CC1=O | < 100 nM |
| O=S(=O)(NC1(CF)CC1)c1cc(N2CCC(O)(C(F)(F)F)CC2)c2nnc(-c3nnc(C(F)F)s3)n2c1 | < 100 nM |

Q: Short answer please: IC50, Human breast squamous carcinoma cells HCC1806, entry CC(C)C[C@@H]1CN(c2cc(S(=O)(=O)NC3(C#N)CC3)cn3c(-c4nnc(C(F)F)s4)ncc23)CCN1C(=O)C1(C)CC1
Ans: < 100 nM

Q: Form: Entry = CC(C)C(=O)N1CCN(c2cc(S(=O)(=O)NC3(CF)CC3)cn3c(-c4nnc(C(F)F)s4)nnc23)CC1 | System = Human breast squamous carcinoma cells HCC1806 | IC50 = ____
Ans: < 100 nM

Q: Notebook entry, Human breast squamous carcinoma cells HCC1806 assay: IC50 of CC(C)C(=O)N1CCN(c2cc(S(=O)(=O)NC3(C)CCOC3)cn3c(-c4nnc(C(F)F)s4)ncc23)CC1 (centres unmarked) = ?
Ans: > 1000 nM

Q: Notebook entry, Human breast squamous carcinoma cells HCC1806 assay: IC50 of C[C@@H]1CN(c2cc(S(=O)(=O)NC3(C)CC3)cn3c(-c4nnc(C(F)F)s4)nnc23)CCN1C(=O)C1(C)CC1 = ?
Ans: < 100 nM

Q: Provide value of IC50 for this record tested with Human breast squamous carcinoma cells HCC1806: CC(C)C(=O)N1CCN(c2c(F)c(S(=O)(=O)NC3(C#N)CC3)cn3c(-c4nnc(C(F)F)s4)ncc23)CC1
Ans: 100 to 500 nM

Q: Form: Entry = CC(C)C(=O)N1CCN(c2cc(S(=O)(=O)NC3(C#N)CC3)cn3c(-c4nnc(C(F)(F)F)s4)ncc23)CC1 | System = Human breast squamous carcinoma cells HCC1806 | IC50 = ____
Ans: < 100 nM

Q: Give IC50 (Human breast squamous carcinoma cells HCC1806) of the following molecule: C[C@@H]1CN(c2cc(S(=O)(=O)NC3(CF)CC3)cn3c(-c4nnc(C(F)F)s4)nnc23)CCN1C(=O)C1(C)CC1
Ans: < 100 nM

Q: Find IC50 (Human breast squamous carcinoma cells HCC1806) for the entry N#CC1(NS(=O)(=O)c2cc(N3CCOCC3)c3cnc(-c4nnc(C(F)F)s4)n3c2)CC1
Ans: < 100 nM

Q: Value wanted: IC50 (Human breast squamous carcinoma cells HCC1806) of entry C#CC1(NS(=O)(=O)c2cc(N3CCN(C(=O)C(C)C)CC3)c3nnc(-c4nnc(C(F)F)s4)n3c2)CC1
Ans: < 100 nM
